Where do the numbers come from? From patent US8575338B2.

target: human BKαβ1 channels (Homo sapiens); construct: expressed in transfected cells; host or cells: CHO cells (G418 and hygromycin selection); assay: BK current in CHO cells expressing human BKαβ1 (PatchXpress whole-cell patch clamp), EC100; format: cell-based; settings: drug concentration causing 100% increase of BK current
Sequence (Q12791 whole entry): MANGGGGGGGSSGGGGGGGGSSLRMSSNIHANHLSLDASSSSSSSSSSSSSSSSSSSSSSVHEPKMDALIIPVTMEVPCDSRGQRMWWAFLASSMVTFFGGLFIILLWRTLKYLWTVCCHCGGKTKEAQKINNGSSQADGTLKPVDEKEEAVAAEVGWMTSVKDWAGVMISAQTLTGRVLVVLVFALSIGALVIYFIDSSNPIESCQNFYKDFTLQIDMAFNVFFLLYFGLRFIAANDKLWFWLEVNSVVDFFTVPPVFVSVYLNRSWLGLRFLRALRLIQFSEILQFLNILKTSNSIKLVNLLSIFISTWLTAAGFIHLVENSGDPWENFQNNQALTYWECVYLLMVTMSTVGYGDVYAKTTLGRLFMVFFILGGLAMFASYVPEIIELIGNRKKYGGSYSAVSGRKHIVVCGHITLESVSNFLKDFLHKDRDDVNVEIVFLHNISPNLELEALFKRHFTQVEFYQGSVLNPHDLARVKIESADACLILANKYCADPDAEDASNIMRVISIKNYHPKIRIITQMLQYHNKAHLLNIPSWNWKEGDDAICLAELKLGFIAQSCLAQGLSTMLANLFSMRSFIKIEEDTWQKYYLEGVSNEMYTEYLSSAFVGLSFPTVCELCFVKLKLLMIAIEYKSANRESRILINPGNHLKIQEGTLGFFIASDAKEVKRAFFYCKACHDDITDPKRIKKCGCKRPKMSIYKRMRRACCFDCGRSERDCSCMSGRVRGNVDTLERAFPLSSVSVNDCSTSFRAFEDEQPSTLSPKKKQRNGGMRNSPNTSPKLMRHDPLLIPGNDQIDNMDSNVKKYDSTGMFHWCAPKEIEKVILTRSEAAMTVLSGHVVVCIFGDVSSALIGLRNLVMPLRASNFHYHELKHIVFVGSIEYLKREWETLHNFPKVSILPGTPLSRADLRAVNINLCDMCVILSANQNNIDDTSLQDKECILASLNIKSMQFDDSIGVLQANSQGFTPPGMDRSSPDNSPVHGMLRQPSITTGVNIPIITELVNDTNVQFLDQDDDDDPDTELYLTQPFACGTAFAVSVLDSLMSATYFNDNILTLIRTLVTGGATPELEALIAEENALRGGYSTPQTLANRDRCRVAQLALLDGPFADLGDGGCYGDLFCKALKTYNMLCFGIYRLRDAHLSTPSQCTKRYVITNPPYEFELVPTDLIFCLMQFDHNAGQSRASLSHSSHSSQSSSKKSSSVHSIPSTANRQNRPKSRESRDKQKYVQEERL
Sequence (Q16558 whole entry partner): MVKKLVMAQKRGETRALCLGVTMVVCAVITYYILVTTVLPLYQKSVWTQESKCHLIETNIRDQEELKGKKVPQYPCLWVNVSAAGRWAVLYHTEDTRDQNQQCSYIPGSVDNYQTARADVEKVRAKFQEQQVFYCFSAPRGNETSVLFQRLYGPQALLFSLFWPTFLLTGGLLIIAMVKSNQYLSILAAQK
property: EC100 (µM)

(A) CC(C)Oc1cc(F)ccc1-c1cc(OC2(C(=O)O)CC2)nc(-c2ccc(F)cc2)n1
(B) COC[C@H]1CCCN1c1cc(OC2(C(=O)[O-])CC2)nc(-c2ccc(Cl)c(F)c2)n1.[Na+]
Prompt: I'm curious, which of these has a smaller EC100 number: A or B ? Lab log: write the label of the selected item as the result.
Response: A
(A: 0.14 µM, B: 0.69 µM)

====

target: human BKαβ1 channels (Homo sapiens); construct: expressed in transfected cells; host or cells: CHO cells (G418 and hygromycin selection); test: BK current in CHO cells expressing human BKαβ1 (PatchXpress whole-cell patch clamp), EC100; type: cell-based; settings: drug concentration causing 100% increase of BK current
property: EC100 (µM)

* COc1ccc(-c2cc(OC3(C(=O)[O-])CC3)nc(-c3ccc(Cl)c(F)c3)n2)cc1F.[Na+] | 0.1
* COc1ccc(CN(C)c2cc(OC3(C(=O)O)CC3)nc(-c3ccc(F)cc3)n2)cc1 | 0.38
* COc1cc(-c2nc(-c3ccc(F)cc3)nc(OC3(C(=O)[O-])CC3)c2C)ccc1F.[Na+] | 0.58

(I) Cc1cc(OC(F)(F)F)ccc1-c1nc(OC2(C(=O)[O-])CC2)nc(-c2ccc(Cl)cc2)n1.[Na+]
(II) O=C([O-])C1(Oc2cc(N3CCN(c4ncccn4)CC3)nc(-c3ccc(Cl)c(F)c3)n2)CC1.[Na+]
(III) COc1cc(-c2cc(OC3(C(=O)[O-])CC3)nc(-c3ccc(Cl)c(F)c3)n2)ccc1F.[Na+]
Prompt: Ordering criterion: EC100; begin with the maximum. # format: label list in the order the request specifies
Response: II, III, I

====

Target: Cox-1 (Rattus norvegicus, UniProt Q63921)
Sequence (Q63921 27-602): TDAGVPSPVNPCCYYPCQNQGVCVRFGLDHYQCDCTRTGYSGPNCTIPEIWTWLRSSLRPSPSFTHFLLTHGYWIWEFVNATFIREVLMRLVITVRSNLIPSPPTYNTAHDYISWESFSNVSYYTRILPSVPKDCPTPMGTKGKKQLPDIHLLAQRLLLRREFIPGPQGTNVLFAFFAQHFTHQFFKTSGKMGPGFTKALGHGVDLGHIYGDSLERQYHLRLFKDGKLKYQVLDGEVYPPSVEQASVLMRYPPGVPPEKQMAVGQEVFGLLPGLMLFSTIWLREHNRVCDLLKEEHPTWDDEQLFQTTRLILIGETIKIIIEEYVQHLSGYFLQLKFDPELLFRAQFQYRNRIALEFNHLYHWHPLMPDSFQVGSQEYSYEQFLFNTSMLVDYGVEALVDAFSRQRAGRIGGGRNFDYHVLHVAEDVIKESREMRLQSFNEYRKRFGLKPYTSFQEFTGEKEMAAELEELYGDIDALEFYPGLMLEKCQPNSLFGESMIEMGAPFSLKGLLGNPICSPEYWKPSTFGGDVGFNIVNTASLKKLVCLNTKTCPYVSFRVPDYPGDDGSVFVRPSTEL
Assay: COXs inhibition, rat whole blood Cox-1
Conditions: read-out: ratWB Cox-1 IC50
pIC50: −log10 of the molar value.
Catalogue of compounds with associated pIC50

Solved cases (2 shown):
- O=C(O)COc1cc(-c2ccc(Cl)c(F)c2)nc(-c2ccc(F)cc2)n1 [Example 188]: < 4.52
- CC(C)(Oc1cc(N2CCCCC2)nc(-c2ccc(Cl)c(F)c2)n1)C(=O)O [Example 1]: < 4.52

Prompt: Form: Entry = O=C(O)COc1cc(N2CCc3ccccc32)nc(-c2ccc(Cl)c(F)c2)n1 [Example 3] | System = Cox-1 (Rattus norvegicus, UniProt Q63921) | pIC50 = ____
Response: < 4.52
